measuredTarget: menin (Homo sapiens, UniProt O00255, T541A)
Sequence (O00255 with tags, fused parts or gaps T541A): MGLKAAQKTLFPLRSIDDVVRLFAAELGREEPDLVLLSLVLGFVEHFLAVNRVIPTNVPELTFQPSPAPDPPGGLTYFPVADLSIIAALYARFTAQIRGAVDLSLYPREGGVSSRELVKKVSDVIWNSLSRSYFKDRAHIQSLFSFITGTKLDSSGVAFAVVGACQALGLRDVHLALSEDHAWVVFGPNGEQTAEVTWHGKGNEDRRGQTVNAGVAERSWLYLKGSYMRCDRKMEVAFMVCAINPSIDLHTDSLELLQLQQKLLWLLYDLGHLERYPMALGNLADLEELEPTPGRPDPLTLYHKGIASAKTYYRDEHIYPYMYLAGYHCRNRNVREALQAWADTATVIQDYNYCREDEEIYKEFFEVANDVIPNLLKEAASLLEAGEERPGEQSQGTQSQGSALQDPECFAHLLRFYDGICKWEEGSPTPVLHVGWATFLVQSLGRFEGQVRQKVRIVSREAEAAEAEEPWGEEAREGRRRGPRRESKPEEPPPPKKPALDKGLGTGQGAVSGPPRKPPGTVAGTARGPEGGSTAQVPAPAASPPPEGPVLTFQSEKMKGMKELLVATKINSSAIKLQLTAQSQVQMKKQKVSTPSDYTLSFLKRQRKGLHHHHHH
assay: Menin/MLL fluorescence polarization (FP) assay
Format: binding
runConditions: averaged values over all measurements; read-out: Menin FP assay (IC50 (μM))
Experimental: 1) Menin/MLL Fluorescence Polarization Assay To a non-surface binding, black 384-well microtiter plate was added 50 nL 160× test compound in DMSO and 4 μL 2× menin in assay buffer (40 mM Tris·HCl, pH 7.5, 50 mM NaCl, 1 mM DTT and 0.001% Tween 20). […] The relative amount of menin·FITC-MBM1 complex present in an assay mixture is determined by measuring the fluorescence polarization (FP) of the FITC label with a BMG Pherastar plate reader (ex. 485 nm/em. 520 nm) at ambient temperature. […]
parameterMeasured: IC50 (µM)

Below: 3 compounds and their reported IC50.
- FC(F)(F)Cc1cc2c(N3CCC[C@]4(CCN(Cc5ccccc5)C4)C3)ncnc2s1 (single isomer, unassigned) [Compound 21a]: 0.49
- FC(F)(F)Cc1cc2c(N3CCC4(CN(Cc5ccncn5)C4)C3)ncnc2s1 [Compound 9]: 0.84
- C[C@@H](c1cnn(C)c1)N1CC2(CCN(c3ncnc4sc(CC(F)(F)F)cc34)C2)C1 [Compound 199]: 0.41

P. CC(c1cnn(C)c1)N1CC2(CCN(c3ncnc4sc(CC(F)(F)F)cc34)C2)C1 (centres unmarked) [Compound 197]
Q. FC(F)(F)Cc1cc2c(N3CC4(CC(OCc5ccccc5)C4)C3)ncnc2s1 [Compound 26]
R. CC(C)CN1CC2(CCN(c3ncnc4sc(CC(F)(F)F)cc34)C2)C1 [Compound 13]
S. Cc1nc(N2CCCC3(CCN(Cc4ccccc4)C3)C2)c2cc(CC(F)(F)F)sc2n1 (centres unmarked) [Compound 19]
[in] Ascending by IC50, please: list the compounds accordingly. Output the labels ranked as instructed.
[out] R, Q, P, S

I. CC(C)[C@@H](C1CNC1)N1CC2(CCN(c3ncnc4sc(CC(F)(F)F)cc34)C2)C1 [Compound 200]
II. FC(F)(F)Cc1cc2c(N3CCC4(CN(Cc5cn6ccccc6n5)C4)C3)ncnc2s1 [Compound 5]
III. FC(F)(F)Cc1cc2c(N3CCC4(CN(Cc5ccc6nccn6c5)C4)C3)ncnc2s1 [Compound 6]
IV. FC(F)(F)Cc1cc2c(N3CCC4(CN(CC5CC6(CCC6)C5)C4)C3)ncnc2s1 [Compound 22]
[in] Arrange the 4 compounds by rising IC50, starting with the smallest. # format: label list in the order the request specifies
[out] IV, I, III, II
(IV: 0.069 µM, I: 0.11 µM, III: 0.24 µM, II: 0.67 µM)

1. FC(F)(F)Cc1cc2c(N3CCC4(CN(Cc5cnccn5)C4)C3)ncnc2s1 [Compound 12]
2. FC(F)(F)Cc1cc2c(N3CC4(CN(Cc5ccccc5)C4)C3)ncnc2s1 [Compound 14]
[in] Pick one, 1 or 2 : lowest reported IC50. Use the label to indicate which entry you chose.
[out] 2

1. Cn1cc(CN2CC3(CCN(c4ncnc5sc(CC(F)(F)F)cc45)C3)C2)cn1 [Compound 30]
2. Cn1cc2c(n1)CCCC2N1CC2(CCN(c3ncnc4sc(CC(F)(F)F)cc34)C2)C1 (centres unmarked) [Compound 133]
3. FC(F)(F)Cc1cc2c(N3CCC4(CN(Cc5ccccc5)C4)C3)ncnc2s1 [Compound 1]
4. O=C(NCCO)C(c1ccccc1)N1CC2(CCN(c3ncnc4sc(CC(F)(F)F)cc34)C2)C1 (centres unmarked) [Compound 75]
[in] Put the items in order so that reported IC50 rises from first to last. Respond with the label ranking, as requested.
[out] 3, 2, 1, 4
(3: 0.056 µM, 2: 0.12 µM, 1: 0.53 µM, 4: 2.36 µM)

a. FC(F)(F)Cc1cc2c(N3CC4(CN(Cc5cc[nH]n5)C4)C3)ncnc2s1 [Compound 41]
b. CC(C)NCCNC(=O)C(c1ccccc1)N1CC2(CCN(c3ncnc4sc(CC(F)(F)F)cc34)C2)C1 (centres unmarked) [Compound 74]
[in] For a and b , which recorded IC50 is lower? Mark your selection by writing its label.
[out] b
(b: 0.12 µM, a: 0.63 µM)

I. OCCn1cccc1CN1CC2(CCN(c3ncnc4sc(CC(F)(F)F)cc34)C2)C1 [Compound 24]
II. Cn1ccc(CN2CC3(C2)CN(c2ncnc4sc(CC(F)(F)F)cc24)C3)n1 [Compound 34]
III. FC(F)(F)Cc1cc2c(N3CCC[C@@]4(CCN(Cc5ccccc5)C4)C3)ncnc2s1 (single isomer, unassigned) [Compound 21b]
IV. Cn1cc(C(CN)N2CC3(CCN(c4ncnc5sc(CC(F)(F)F)cc45)C3)C2)cn1 (centres unmarked) [Compound 195]
[in] # ascending order, key=IC50 Response field: labels, in requested order.
[out] III, I, II, IV
(III: 0.13 µM, I: 0.49 µM, II: 0.72 µM, IV: 1.07 µM)

P. FC(F)(F)CCN1CC2(CCN(c3ncnc4sc(CC(F)(F)F)cc34)C2)C1 [Compound 2]
Q. NCCCOc1cccc(CN2CC3(CCN(c4ncnc5sc(CC(F)(F)F)cc45)C3)C2)c1 [Compound 37]
R. FC(F)(F)Cc1cc2c(N3CCC4(CN(Cc5cnc6ccccn56)C4)C3)ncnc2s1 [Compound 7]
S. FC(F)(F)Cc1cc2c(N3CCC4(CN(Cc5cncnc5)C4)C3)ncnc2s1 [Compound 10]
[in] Arrange these 4 compounds in increasing order of IC50. Please, when replying, give the labels in the order that was requested.
[out] Q, P, R, S

P. FC(F)(F)Cc1cc2c(N3CCC4(CN(Cc5ccc[nH]5)C4)C3)ncnc2s1 [Compound 25]
Q. FC(F)(F)Cc1cc2c(N3CCC4(CN(Cc5cnc(Cl)cn5)C4)C3)ncnc2s1 [Compound 8]
[in] Which record would sort first by descending IC50, P or Q ? Please reply using the label of the selected record.
[out] Q
